TARGET_OR_TEST_SYSTEM: UniProtKB Q16790
READOUT_NAME: Ki (nM)
Numbers only, in nM.

The cases that follow already have their Ki on record.
1. NS(=O)(=O)c1ccc(NC(=O)CCS(=O)(=O)c2ccccc2)cc1	46.1
2. NS(=O)(=O)c1ccc(NC(=O)CS(=O)(=O)c2ccccc2)cc1	22.7
3. Cc1ccc(S(=O)(=O)CC(=O)Nc2ccc(C(=O)O)cc2)cc1	720

Then this compound:
**Query** Look up Ki for this compound: Cc1ccc(S(=O)(=O)C(C)C(=O)Nc2ccc(S(N)(=O)=O)cc2)cc1 (centres undefined)
**Result** 29.8
